Origin of measurements: patent US20240182423A1

# procedure.text: Pharmacokinetic study in mice
# Assay type: in vivo
# condition.details: mouse, plasma; PO 5 mg/kg in PEG400, male CD1 mice, non-compartmental
endpoint: Cmax (ng/mL)

compound	readout.number
CC(C)CN1CCC(c2ccc(Nc3ccnc4cc(Cl)ccc34)cc2)CC1 [ADC-028]	67.7

---

# Tested on: multi-drug resistant (Dd2) P. falciparum
# procedure.text: SYBR Green I fluorescence-based antiplasmodial assay, Dd2
# Type: cell-based, Plasmodium falciparum
# condition.details: P. falciparum Dd2, 72 hours

molecule	IC50, nM
CCN1CCN(c2ccc(Nc3ccnc4cc(Cl)ccc34)cc2)CC1 [ADC-009]	12.7

---

# Tested on: drug sensitive D6 clone of P. falciparum
# procedure.text: SYBR Green I fluorescence-based antiplasmodial assay, D6
# Format: cell-based, Plasmodium falciparum
# condition.details: P. falciparum D6, 72 hours
# Experimental: Laboratory strains of P. falciparum were cultured in human erythrocytes by standard methods (Trager, W.; Jensen, J. B. Human malaria parasites in continuous culture. Science 1976, 193 (4254), 673-675. DOI: 10.1126/science.781840 from NLM Medline). The parasites were grown in culture medium with fresh human erythrocytes maintained at 2% hematocrit at 37° C. in low-oxygen conditions (5% 02, 5% CO2, 90% N2). […] In vitro antimalarial activity was measured using the SYBR Green I fluorescence-based assay. […]

compound	unit.info	IC50
CCN1CCN(c2ccc(Nc3ccnc4cc(Cl)ccc34)cc2)CC1 [ADC-009]	nM	13.2

---

Measured CC50 at 24 h by item
# procedure.text: HepG2 cytotoxicity assay (resazurin)
# Type: cell-based
# condition.details: human, HepG2 cells; HepG2, 24 h drug then 24 h drug-free; read-out: CC50 v HepG2

compound	CC50 at 24 h
CCN1CCC(c2ccc(Nc3ccnc4cc(Cl)ccc34)cc2)CC1	111 µM
Clc1ccc2c(Nc3ccc(N4CCN(C5CC5)CC4)cc3)ccnc2c1	> 200 µM
CCN1CCN(c2ccc(Nc3ccnc4cc(Br)ccc34)cc2)CC1	48 µM
CC(C)(C)OC(=O)N1CCN(c2ccc(Nc3ccnc4cc(Cl)ccc34)cc2)CC1	> 200 µM
CCCCN1CCC(c2ccc(Nc3ccnc4cc(Cl)ccc34)cc2)CC1	> 200 µM
CCCN1CCC(c2ccc(Nc3ccnc4cc(Cl)ccc34)cc2)CC1	> 200 µM
Clc1ccc2c(Nc3ccc(N4CCN(Cc5ccccc5)CC4)cc3)ccnc2c1	> 200 µM
CC(C)(C)N1CCN(c2ccc(Nc3ccnc4cc(Cl)ccc34)cc2)CC1	> 200 µM
CCN1CCN(c2ccc(Nc3ccnc4ccc(Cl)cc34)cc2)CC1	> 200 µM
CC(C)CN1CCN(c2ccc(Nc3ccnc4cc(Cl)ccc34)cc2)CC1	> 200 µM
CC(C)N1CCC(c2ccc(Nc3ccnc4cc(Cl)ccc34)cc2)CC1	> 200 µM
FC(F)(F)c1ccc(N2CCN(c3ccc(Nc4ccnc5cc(Cl)ccc45)cc3)CC2)cc1	> 200 µM
Clc1ccc2c(Nc3ccc(N4CCNCC4)cc3)ccnc2c1	54 µM
CN1CCN(c2ccc(Nc3ccnc4cc(Cl)ccc34)cc2)CC1	185 µM
CCC(C)N1CCC(c2ccc(Nc3ccnc4cc(Cl)ccc34)cc2)CC1 (stereo not drawn)	> 200 µM
CCN1CCN(c2ccc(Nc3ccnc4cc(Cl)ccc34)cc2)CC1	> 200 µM
Clc1ccc2c(Nc3ccc(C4CCNCC4)cc3)ccnc2c1	58 µM
CCN1CCN(c2ccc(Nc3ccnc4cc(C(F)(F)F)ccc34)cc2)CC1	> 200 µM

---

# procedure.text: Pharmacokinetic study in mice
# Assay type: in vivo
# condition.details: mouse, plasma; PO 5 mg/kg, male CD1 mice; Rsq_adjusted 0.829 (<0.9: might not be accurately estimated)

molecule	half-life [min]
CC(C)CN1CCC(c2ccc(Nc3ccnc4cc(Cl)ccc34)cc2)CC1	1510

---

# procedure.text: Metabolic stability in pooled murine liver microsomes
# Format: in vitro ADME
# condition.details: mouse
Measured half-life by item

compound	half-life (min)
CCN1CCN(c2ccc(Nc3ccnc4cc(Cl)ccc34)cc2)CC1 [ADC-009]	1.86
CC(C)CN1CCN(c2ccc(Nc3ccnc4cc(Cl)ccc34)cc2)CC1 [ADC-030]	13.9
CCCCN1CCC(c2ccc(Nc3ccnc4cc(Cl)ccc34)cc2)CC1 [ADC-027]	42.1
CC(C)N1CCC(c2ccc(Nc3ccnc4cc(Cl)ccc34)cc2)CC1 [ADC-021]	44.1
CCC(C)N1CCC(c2ccc(Nc3ccnc4cc(Cl)ccc34)cc2)CC1 (stereo not drawn) [ADC-029]	55.5
CN1CCN(c2ccc(Nc3ccnc4cc(Cl)ccc34)cc2)CC1 [ADC-010]	1.44
Clc1ccc2c(Nc3ccc(N4CCN(Cc5ccccc5)CC4)cc3)ccnc2c1 [ADC-008]	13.9
CCN1CCC(c2ccc(Nc3ccnc4cc(Cl)ccc34)cc2)CC1 [ADC-020]	11
CCCN1CCC(c2ccc(Nc3ccnc4cc(Cl)ccc34)cc2)CC1 [ADC-026]	70

---

# procedure.text: Metabolic stability in pooled murine liver microsomes
# Format: in vitro ADME
Measured CIint by item
endpoint: CIint (mL/min/kg)

compound	endpoint	readout.number
CCCN1CCC(c2ccc(Nc3ccnc4cc(Cl)ccc34)cc2)CC1 [ADC-026]	CIint	78.0
CCC(C)N1CCC(c2ccc(Nc3ccnc4cc(Cl)ccc34)cc2)CC1 (stereo not shown) [ADC-029]	CIint	98.3
CC(C)N1CCC(c2ccc(Nc3ccnc4cc(Cl)ccc34)cc2)CC1 [ADC-021]	CIint	123.6
CC(C)(C)N1CCN(c2ccc(Nc3ccnc4cc(Cl)ccc34)cc2)CC1 [ADC-017]	CIint	0.00
CC(C)CN1CCN(c2ccc(Nc3ccnc4cc(Cl)ccc34)cc2)CC1 [ADC-030]	CIint	391.9
CCN1CCC(c2ccc(Nc3ccnc4cc(Cl)ccc34)cc2)CC1 [ADC-020]	CIint	496.7
Clc1ccc2c(Nc3ccc(N4CCN(Cc5ccccc5)CC4)cc3)ccnc2c1 [ADC-008]	CIint	391.9
CN1CCN(c2ccc(Nc3ccnc4cc(Cl)ccc34)cc2)CC1 [ADC-010]	CIint	3784
CCN1CCN(c2ccc(Nc3ccnc4cc(Cl)ccc34)cc2)CC1 [ADC-009]	CIint	2936
CCCCN1CCC(c2ccc(Nc3ccnc4cc(Cl)ccc34)cc2)CC1 [ADC-027]	CIint	129.7

---

# procedure.text: HepG2 cytotoxicity assay (resazurin)
# Assay type: cell-based
# condition.details: human; HepG2, 24 h drug then 24 h drug-free; read-out: CC50 v HepG2
endpoint: CC50 at 24 h

molecule	result
CC(C)CN1CCC(c2ccc(Nc3ccnc4cc(Cl)ccc34)cc2)CC1	> 200 µM

---

# System: drug sensitive D6 clone of P. falciparum
# procedure.text: SYBR Green I fluorescence-based antiplasmodial assay, D6
# Type: cell-based, Plasmodium falciparum
# condition.details: Plasmodium falciparum, D6, 72 h, P. falciparum D6, 72 hours
Measured IC50 by item

compound	IC50, nM
FC(F)(F)c1ccc(N2CCN(c3ccc(Nc4ccnc5cc(Cl)ccc45)cc3)CC2)cc1	43.3
CCN1CCC(c2ccc(Nc3ccnc4cc(Cl)ccc34)cc2)CC1	4.56
CC(C)N1CCC(c2ccc(Nc3ccnc4cc(Cl)ccc34)cc2)CC1	4.94
CCN1CCN(c2ccc(Nc3ccnc4ccc(Cl)cc34)cc2)CC1	69.8
CN1CCN(c2ccc(Nc3ccnc4cc(Cl)ccc34)cc2)CC1	13.3
CC(C)CN1CCN(c2ccc(Nc3ccnc4cc(Cl)ccc34)cc2)CC1	9.79
Clc1ccc2c(Nc3ccc(N4CCN(Cc5ccccc5)CC4)cc3)ccnc2c1	16.1
CC(C)(C)N1CCN(c2ccc(Nc3ccnc4cc(Cl)ccc34)cc2)CC1	5.18
CCCCN1CCC(c2ccc(Nc3ccnc4cc(Cl)ccc34)cc2)CC1	9.03
CCCN1CCC(c2ccc(Nc3ccnc4cc(Cl)ccc34)cc2)CC1	9.25
CCN1CCN(c2ccc(Nc3ccnc4cc(Br)ccc34)cc2)CC1	10.3
Clc1ccc2c(Nc3ccc(N4CCNCC4)cc3)ccnc2c1	21.8
CCC(C)N1CCC(c2ccc(Nc3ccnc4cc(Cl)ccc34)cc2)CC1 (centres unmarked)	13.8
CC(C)CN1CCC(c2ccc(Nc3ccnc4cc(Cl)ccc34)cc2)CC1	7.9
Clc1ccc2c(Nc3ccc(C4CCNCC4)cc3)ccnc2c1	10.2
Clc1ccc2c(Nc3ccc(N4CCN(C5CC5)CC4)cc3)ccnc2c1	39.2

---

# procedure.text: Pharmacokinetic study in mice
# Assay type: in vivo
# condition.details: mouse, plasma; PO 5 mg/kg in PEG400, male CD1 mice
endpoint: AUC(0-t) (ng·h/mL)

molecule	endpoint	readout.number
CC(C)CN1CCC(c2ccc(Nc3ccnc4cc(Cl)ccc34)cc2)CC1	AUC(0-t)	2360

---

# procedure.text: Pharmacokinetic study in mice
# Format: in vivo
# condition.details: mouse, plasma; PO 5 mg/kg in PEG400, male CD1 mice

molecule	AUC(0-inf), ng·h/mL
CC(C)CN1CCC(c2ccc(Nc3ccnc4cc(Cl)ccc34)cc2)CC1	3160
